Assignment: determine reported pIC50 for the given molecules.
Target: full-length recombinant human NEK7 (Homo sapiens (Human), UniProt Q8TDX7)
Sequence (Q8TDX7 whole entry): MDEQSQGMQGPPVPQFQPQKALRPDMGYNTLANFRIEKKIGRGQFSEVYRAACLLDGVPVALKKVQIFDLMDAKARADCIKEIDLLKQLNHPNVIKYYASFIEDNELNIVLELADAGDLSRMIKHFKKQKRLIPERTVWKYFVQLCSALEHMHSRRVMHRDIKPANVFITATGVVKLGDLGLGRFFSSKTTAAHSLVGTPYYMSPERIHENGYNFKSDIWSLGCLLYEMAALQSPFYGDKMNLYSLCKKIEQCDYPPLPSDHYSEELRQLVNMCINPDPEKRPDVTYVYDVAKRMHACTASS
Assay: NEK7 Enzymatic Assay ([33P]-ATP, casein substrate)
pIC50: −log10 of the molar value.

# count of solved cases: 3
{"columns": ["Molecule", "pIC50"],
 "data": [
  ["COCCn1cc(-c2ccc(NC(=O)Nc3cc(C4(C(F)(F)F)CC4)no3)c(F)c2)c2c(N)ncnc21 [Example 51]", "> 6.82"],
  ["CC1(c2cc(NC(=O)Nc3ccc(-c4cn(C5CC5)c5ncnc(N)c45)cc3F)on2)CCC1 [Example 34]", "> 6.82"],
  ["Nc1ncnc2c1c(-c1ccc(NC(=O)Nc3cc(C4(C(F)(F)F)CC4)no3)c(F)c1)cn2CCO [Example 52]", "> 6.82"]
]}

Kindly review the next molecule as well.
For the molecule Nc1ncnc2c1c(-c1ccc(NC(=O)Nc3cc(C4(C(F)(F)F)CC4)on3)c(F)c1)cn2C1CCC1 [Example 58] , what pIC50 is on record?
5.82 to 6.30

###

Hi there, I'd appreciate the recorded IC50 for every entry that follows.
Biological target: full-length recombinant human NEK7 (Homo sapiens (Human))
Assay: NEK7 Enzymatic Assay ([33P]-ATP, casein substrate)

Use the examples below as a reference point.
{"columns": ["Molecule", "Target", "Reported measurement"],
 "data": [
  ["CC(C)c1cc(NC(=O)Nc2ccc(-c3cn(C4CC4)c4ncnc(N)c34)cc2F)on1 [Example 32]", "full-length recombinant human NEK7 (Homo sapiens (Human))", "< 150 nM"],
  ["CC(C)(C)c1nsc(NC(=O)Nc2ccc(-c3cn(C4CC4)c4ncnc(N)c34)cc2F)n1 [Example 21]", "full-length recombinant human NEK7 (Homo sapiens (Human))", "> 1500 nM"],
  ["Nc1ncnc2c1c(-c1ccc(NC(=O)Nc3cc(C(F)(F)F)no3)c(F)c1)cn2C1CC1 [Example 28]", "full-length recombinant human NEK7 (Homo sapiens (Human))", "151 to 300 nM"],
  ["Nc1ncnc2c1c(-c1ccc(NC(=O)Nc3cc(C4(C(F)(F)F)CCC4)no3)c(F)c1)cn2C1CC1 [Example 45]", "full-length recombinant human NEK7 (Homo sapiens (Human))", "151 to 300 nM"],
  ["Nc1ncnc2c1c(-c1ccc(NC(=O)Nc3cc(C4(C(F)(F)F)CC4)no3)c(F)c1)cn2C1CCC1 [Example 53]", "full-length recombinant human NEK7 (Homo sapiens (Human))", "301 to 500 nM"],
  ["Nc1ncnc2c1c(-c1ccc(NC(=O)Nc3cc(C4(C(F)(F)F)CC4)no3)c(F)c1)cn2-c1ccncc1 [Example 25]", "full-length recombinant human NEK7 (Homo sapiens (Human))", "501 to 1500 nM"]
]}

Now turn to the next molecule.
Which IC50 reading was recorded for the molecule CC(C)(C)c1cc(NC(=O)Nc2ccc(-c3cn(C4CC4)c4ncnc(N)c34)cc2F)no1 [Example 4] ?
< 150 nM

###

Target: full-length recombinant human NEK7 (Homo sapiens (Human), UniProt Q8TDX7)
Assay: NEK7 Enzymatic Assay ([33P]-ATP, casein substrate)
Reported property: IC50

{"columns": ["Molecule", "Target", "Reported property", "Reported measurement"],
 "data": [
  ["Nc1ncnc2c1c(-c1ccc(NC(=O)Nc3cc(C4(C(F)(F)F)CC4)no3)nc1)cn2C1CC1", "full-length recombinant human NEK7 (Homo sapiens (Human), UniProt Q8TDX7)", "IC50", "< 150 nM"],
  ["CC(C)(C)c1nnc(NC(=O)Nc2ccc(-c3cn(C4CC4)c4ncnc(N)c34)cc2F)s1", "full-length recombinant human NEK7 (Homo sapiens (Human), UniProt Q8TDX7)", "IC50", "301 to 500 nM"],
  ["CC(C)(F)c1cc(NC(=O)Nc2ccc(-c3cn(C4CC4)c4ncnc(N)c34)cc2F)on1", "full-length recombinant human NEK7 (Homo sapiens (Human), UniProt Q8TDX7)", "IC50", "< 150 nM"],
  ["CC(C)(c1cc(NC(=O)Nc2ccc(-c3cn(C4CC4)c4ncnc(N)c34)cc2F)on1)C(F)(F)F", "full-length recombinant human NEK7 (Homo sapiens (Human), UniProt Q8TDX7)", "IC50", "151 to 300 nM"],
  ["Nc1ncnc2c1c(-c1ccc(NC(=O)Nc3cc(C4(C(F)(F)F)CC4)no3)cc1F)cn2C1CC1", "full-length recombinant human NEK7 (Homo sapiens (Human), UniProt Q8TDX7)", "IC50", "301 to 500 nM"],
  ["N#Cc1cc(-c2cn(C3CC3)c3ncnc(N)c23)ccc1NC(=O)Nc1cc(C2(C(F)(F)F)CC2)no1", "full-length recombinant human NEK7 (Homo sapiens (Human), UniProt Q8TDX7)", "IC50", "> 1500 nM"],
  ["Cc1cc(-c2cn(C3CC3)c3ncnc(N)c23)ccc1NC(=O)Nc1cc(C2(C(F)(F)F)CC2)no1", "full-length recombinant human NEK7 (Homo sapiens (Human), UniProt Q8TDX7)", "IC50", "501 to 1500 nM"],
  ["Nc1ncnc2c1c(-c1ccc(NC(=O)Nc3cc(C4(C(F)(F)F)CC4)no3)c(F)c1)cn2C1CC1", "full-length recombinant human NEK7 (Homo sapiens (Human), UniProt Q8TDX7)", "IC50", "< 150 nM"],
  ["CC(C)(C)n1cnc(NC(=O)Nc2ccc(-c3cn(C4CC4)c4ncnc(N)c34)cc2F)n1", "full-length recombinant human NEK7 (Homo sapiens (Human), UniProt Q8TDX7)", "IC50", "> 1500 nM"],
  ["CC(C)(C)c1cc(NC(=O)NC2CCC(c3cn(C4CC4)c4ncnc(N)c34)CC2)on1 (stereo not drawn)", "full-length recombinant human NEK7 (Homo sapiens (Human), UniProt Q8TDX7)", "IC50", "> 1500 nM"]
]}

Hi there! I need IC50 for each item below, if you can.
1. Cc1cc(NC(=O)Nc2ccc(-c3cn(C4CC4)c4ncnc(N)c34)cc2F)no1
2. Nc1ncnc2c1c(-c1ccc(NC(=O)Nc3cc(C4(C(F)(F)F)CC4)no3)cn1)cn2C1CC1

1. 501 to 1500 nM
2. > 1500 nM

###

For each record, write down the corresponding IC50.
Biological target: full-length recombinant human NEK7 (Homo sapiens (Human))
Assay: NEK7 Enzymatic Assay ([33P]-ATP, casein substrate)

// solved cases for IC50 follow
{"columns": ["Compound", "Target", "IC50"],
 "data": [
  ["CC(C)(CO)c1cc(NC(=O)Nc2ccc(-c3cn(C4CC4)c4ncnc(N)c34)cc2F)on1", "full-length recombinant human NEK7 (Homo sapiens (Human))", "301 to 500 nM"],
  ["CC(C)(C)c1cc(NC(=O)Nc2ccc(-c3cn(C4CC4)c4ncnc(N)c34)cc2F)on1", "full-length recombinant human NEK7 (Homo sapiens (Human))", "< 150 nM"],
  ["CC(C)(C)c1cc(NC(=O)Nc2ccc(-c3cn(C4CC4)c4ncnc(N)c34)cc2F)sn1", "full-length recombinant human NEK7 (Homo sapiens (Human))", "> 1500 nM"],
  ["Nc1ncnc2c1c(-c1ccc(NC(=O)Nc3cc(C4(C(F)(F)F)CC4)no3)c(CO)c1)cn2C1CC1", "full-length recombinant human NEK7 (Homo sapiens (Human))", "> 1500 nM"],
  ["CCC(CC)c1cc(NC(=O)Nc2ccc(-c3cn(C4CC4)c4ncnc(N)c34)cc2F)on1", "full-length recombinant human NEK7 (Homo sapiens (Human))", "301 to 500 nM"],
  ["COc1cc(-c2cn(C3CC3)c3ncnc(N)c23)ccc1NC(=O)Nc1cc(C2(C(F)(F)F)CC2)no1", "full-length recombinant human NEK7 (Homo sapiens (Human))", "> 1500 nM"],
  ["Nc1ncnc2c1c(-c1ccc(NC(=O)Nc3cc(CO)no3)c(F)c1)cn2C1CC1", "full-length recombinant human NEK7 (Homo sapiens (Human))", "501 to 1500 nM"],
  ["Nc1ncnc2c1c(-c1ccc(NC(=O)Nc3cc(C4(C(F)(F)F)CC4)on3)c(F)c1)cn2C1CC1", "full-length recombinant human NEK7 (Homo sapiens (Human))", "151 to 300 nM"],
  ["CC(C)(O)Cn1cc(-c2ccc(NC(=O)Nc3cc(C4(C(F)(F)F)CC4)no3)nc2)c2c(N)ncnc21", "full-length recombinant human NEK7 (Homo sapiens (Human))", "< 150 nM"],
  ["Nc1ncnc2c1c(-c1cc(F)c(NC(=O)Nc3cc(C4(C(F)(F)F)CC4)on3)c(F)c1)cn2C1CC1", "full-length recombinant human NEK7 (Homo sapiens (Human))", "> 1500 nM"]
]}

For each of the compounds below, note its IC50.
1. Nc1ncnc2c1c(-c1c(F)cc(NC(=O)Nc3cc(C4(C(F)(F)F)CC4)no3)cc1F)cn2C1CC1
2. CC(C)(C)c1csc(NC(=O)Nc2ccc(-c3cn(C4CC4)c4ncnc(N)c34)cc2F)n1

> 1500 nM
> 1500 nM

Give me IC50 for each of these compounds, listed below.
1. CC(C)(C)c1cc(NC(=O)Nc2ccc(-c3cn(C4CC4)c4ncnc(N)c34)cc2)on1
2. CC1(c2cc(NC(=O)Nc3ccc(-c4cn(C5CC5)c5ncnc(N)c45)cc3F)on2)COC1
3. Nc1ncnc2c1c(-c1ccc(NC(=O)Nc3cc(C4(C(F)(F)F)CC4)on3)c(F)c1)cn2CCO
4. Nc1ncnc2c1c(-c1cc(F)c(NC(=O)Nc3cc(C4(C(F)(F)F)CC4)no3)cc1F)cn2C1CC1
5. Nc1nccc2c1c(-c1ccc(NC(=O)Nc3cc(C4(C(F)(F)F)CC4)no3)c(F)c1)cn2C1CC1
6. CC(C)(C)c1cc(NC(=O)Nc2ccc(-c3cn(C4COC4)c4ncnc(N)c34)cc2)on1

301 to 500 nM
< 150 nM
< 150 nM
501 to 1500 nM
> 1500 nM
151 to 300 nM

// each listed compound needs a value for IC50
1. Nc1ncnc2c1c(-c1cnc(NC(=O)Nc3cc(C4(C(F)(F)F)CC4)no3)nc1)cn2C1CC1
2. Nc1ncnc2c1c(-c1cnc(NC(=O)Nc3cc(C4(C(F)(F)F)CC4)no3)c(F)c1)cn2C1CC1
3. Cc1cc(NC(=O)Nc2ccc(-c3cn(C4CC4)c4ncnc(N)c34)cc2F)on1
4. Nc1ncnc2c1c(-c1cc(F)c(NC(=O)Nc3cc(C4(C(F)(F)F)CC4)no3)c(F)c1)cn2C1CC1
5. CC(C)(C)c1nnc(NC(=O)Nc2ccc(-c3cn(C4CC4)c4ncnc(N)c34)cc2F)o1
6. CC(C)(C#N)c1cc(NC(=O)Nc2ccc(-c3cn(C4CC4)c4ncnc(N)c34)cc2F)on1
7. Cc1cc(-c2cn(C3CC3)c3ncnc(N)c23)ncc1NC(=O)Nc1cc(C2(C(F)(F)F)CC2)no1

["> 1500 nM", "501 to 1500 nM", "501 to 1500 nM", "> 1500 nM", "301 to 500 nM", "151 to 300 nM", "> 1500 nM"]
